Tested on: Listeria monocytogenes 10403S
Run description: growth inhibition relative to ceftriaxone-alone control; higher = stronger potentiation of ceftriaxone growth inhibition
Condition label: 10 µM; ceftriaxone 1 ug/ml; 12 h
Observable: growth inhibition (%)
Reply numerically in %, unit not repeated.

Entry COc1ccc(-c2nn3ncccc3c2-c2ccnc(Nc3ccc(F)c(F)c3)n2)cc1 , Listeria monocytogenes 10403S data, growth inhibition value: -0.06

====

Tested on: Listeria monocytogenes 10403S
Run description: growth inhibition relative to ceftriaxone-alone control; higher = stronger potentiation of ceftriaxone growth inhibition
Condition label: 10 µM; ceftriaxone 1 ug/ml; 12 h
Readings of growth inhibition for the listed molecules
Reply numerically in %, unit not repeated.

[
  {
    "Molecule": "CC1(C)CNc2cc(NC(=O)c3cccnc3NCc3ccncc3)ccc21 [Motesanib Diphosphate (AMG-706)]",
    "growth inhibition [%]": 22.2
  },
  {
    "Molecule": "COc1cccc(-n2ncc3c(N/N=C/c4cccc(F)c4)ncnc32)c1",
    "growth inhibition [%]": 6.27
  }
]

Entry COc1cc(/C=N/Nc2ncnc3c2cnn3C(C)C)ccc1O , Listeria monocytogenes 10403S data, growth inhibition value: -1.18

Entry CNC(=O)c1cc(Oc2ccc(NC(=O)Nc3ccc(Cl)c(C(F)(F)F)c3)cc2)ccn1 [Sorafenib (Nexavar)] , Listeria monocytogenes 10403S data, growth inhibition value: 98.7

====

Tested on: Listeria monocytogenes 10403S
Run description: growth inhibition relative to ceftriaxone-alone control; higher = stronger potentiation of ceftriaxone growth inhibition
Condition label: 10 µM; ceftriaxone 1 ug/ml; 12 h
growth inhibition below 10% gives no; growth inhibition at or above it gives yes.

Answered examples (8):
[
  {
    "Compound": "COCC(=O)NC/C=C/c1ccc2ncnc(Nc3ccc(Oc4ccc(C)nc4)c(C)c3)c2c1",
    "Cat": "no"
  },
  {
    "Compound": "Nc1ncnc2c1c(-c1cnc3[nH]ccc3c1)nn2C1CCCC1",
    "Cat": "yes"
  },
  {
    "Compound": "CCOc1cc2ncc(C#N)c(Nc3ccc(F)c(Cl)c3)c2cc1NC(=O)/C=C/CN(C)C [Pelitinib (EKB-569)]",
    "Cat": "yes"
  },
  {
    "Compound": "CCCNC(=O)Nc1ccc(Oc2ncnc3cc(OC)c(OC)cc23)cc1Cl",
    "Cat": "yes"
  },
  {
    "Compound": "Cn1cnc(N)c2ncnc1-2 [3-Methyladenine]",
    "Cat": "no"
  },
  {
    "Compound": "Cc1cc(Nc2cc(CN3CCOCC3)c3nc(C)c(Cc4ccc(Cl)cc4F)n3n2)n[nH]1",
    "Cat": "yes"
  },
  {
    "Compound": "CN1CCC(C(=O)Nc2n[nH]c3nnc(-c4ccccc4)cc23)CC1",
    "Cat": "yes"
  },
  {
    "Compound": "CC(=O)NCC(=O)N1[C@@H]2CC[C@H]1c1ccc(Nc3ncc(C(F)(F)F)c(NC4CCC4)n3)cc12",
    "Cat": "yes"
  }
]

--- query ---
// query Reported growth inhibition reaches at least 10% for Cc1cc2c(F)c(Oc3ncnn4cc(OC[C@@H](C)OC(=O)[C@H](C)N)c(C)c34)ccc2[nH]1 ?
// result yes

====

System: Listeria monocytogenes 10403S;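 also: End-point A600 read in BHI broth at 37 °C with 2% DMSO, inhibition computed as (1 − OD with compound plus ceftriaxone ÷ OD with ceftriaxone only) × 100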
Run description: growth inhibition relative to ceftriaxone-alone control; higher = stronger potentiation of ceftriaxone growth inhibition
Condition label: 10 µM; ceftriaxone 1 ug/ml; 12 h
Observable: growth inhibition (%)
Reply numerically in %, unit not repeated.

Here are 3 molecules together with their reported answers.
[
  {
    "Molecule": "O=C1Nc2ccc(C(=O)c3ccco3)cc2C1=Cc1cc(Cl)c(O)c(Cl)c1",
    "growth inhibition (%)": 13.9
  },
  {
    "Molecule": "CS(=O)(=O)CCNCc1ccc(-c2ccc3ncnc(Nc4ccc(OCc5ccccc5)c(Cl)c4)c3c2)o1",
    "growth inhibition (%)": -9.81
  },
  {
    "Molecule": "CCc1cc(Nc2nccc(-c3c(-c4ccc(OC)c(C(=O)Nc5c(F)cccc5F)c4)nc4ccccn34)n2)c(OC)cc1N1CCC(N2CCN(S(C)(=O)=O)CC2)CC1",
    "growth inhibition (%)": 24.5
  }
]

For record C=CC(=O)Nc1cc2c(Nc3ccc(F)c(Cl)c3)ncnc2cc1OCCCN1CCOCC1 [CI-1033 (Canertinib)] the listed growth inhibition is 21.5

For record COc1ccc(CNC(=O)c2ccc(-c3cc(-c4nnc(C)o4)ccc3C)cc2)cc1 the listed growth inhibition is 9.02
